- measurement target: 2-5A-dependent ribonuclease (Mus musculus) (UniProt Q05921)
- Sequence (Q05921 whole entry): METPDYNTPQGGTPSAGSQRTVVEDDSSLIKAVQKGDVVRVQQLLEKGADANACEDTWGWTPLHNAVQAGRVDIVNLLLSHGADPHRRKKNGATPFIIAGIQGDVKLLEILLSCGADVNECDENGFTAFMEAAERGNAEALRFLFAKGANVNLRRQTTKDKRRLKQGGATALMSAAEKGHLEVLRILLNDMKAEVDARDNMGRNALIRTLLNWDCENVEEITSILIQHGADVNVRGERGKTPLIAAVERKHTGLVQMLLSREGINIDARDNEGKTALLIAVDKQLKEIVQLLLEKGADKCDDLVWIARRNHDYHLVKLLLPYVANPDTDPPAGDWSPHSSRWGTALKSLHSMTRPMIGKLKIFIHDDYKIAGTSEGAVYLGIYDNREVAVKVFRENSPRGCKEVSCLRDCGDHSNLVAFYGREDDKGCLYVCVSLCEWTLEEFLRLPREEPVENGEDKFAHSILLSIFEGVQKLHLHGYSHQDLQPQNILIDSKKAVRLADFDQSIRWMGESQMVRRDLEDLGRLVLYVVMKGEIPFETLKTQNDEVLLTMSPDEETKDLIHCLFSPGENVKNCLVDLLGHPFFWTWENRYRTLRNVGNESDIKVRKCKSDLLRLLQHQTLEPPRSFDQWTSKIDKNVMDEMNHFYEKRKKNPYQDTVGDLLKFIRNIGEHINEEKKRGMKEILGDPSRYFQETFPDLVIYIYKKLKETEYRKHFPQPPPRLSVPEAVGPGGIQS
- protocol details: Displacement of pA4[32P]pCp from mouse spleen RNase L at 1 uM
- Assay type: tissue-based
recorded metric: Activity (%)
Form entry: value (%) — number only.

Ask: # return recorded Activity for input Nc1ncnc2c1ncn2[C@@H]1O[C@H](COP(=O)(O)O[C@@H]2[C@H](O)[C@@H](COP(=O)(O)O[C@@H]3[C@H](O)[C@@H](COP(=O)(O)O[C@@H]4[C@H](O)[C@@H](COP(=O)(O)O)O[C@H]4n4cnc5c(N)ncnc54)O[C@H]3n3cnc4c(N)ncnc43)O[C@H]2n2cnc3c(N)ncnc32)[C@@H](O)[C@H]1OP(=O)(O)O
Reply: 100

Ask: For the molecule Nc1ncnc2c1ncn2[C@@H]1O[C@H](COP(=O)(O)O[C@@H]2[C@H](O)[C@@H](COP(=O)(O)O)O[C@H]2n2cnc3c(N)ncnc32)[C@H](O)[C@H]1OP(=O)(O)OC[C@H]1O[C@@H](n2cnc3c(N)ncnc32)[C@H](OP(=O)(O)OC[C@H]2O[C@@H](n3cnc4c(N)ncnc43)[C@H](OP(=O)(O)O)[C@@H]2O)[C@@H]1O , give its reported Activity.
Reply: 67

Ask: Please supply the value of reported Activity for the item Nc1ncnc2c1ncn2[C@@H]1O[C@H](COP(=O)(O)O)[C@H](O)[C@H]1OP(=O)(O)OC[C@H]1O[C@@H](n2cnc3c(N)ncnc32)[C@H](OP(=O)(O)OC[C@H]2O[C@@H](n3cnc4c(N)ncnc43)[C@H](OP(=O)(O)O)[C@@H]2O)[C@@H]1O
Reply: 64

---

- measurement target: 2-5A-dependent ribonuclease (Mus musculus)
- protocol details: Displacement of pA4[32P]pCp from mouse spleen RNase L at 1 uM
- Format: tissue-based
recorded metric: Activity (%)

As a guide, the following entries are already answered.
- smiles record: "Nc1ncnc2c1ncn2[C@@H]1O[C@H](COP(=O)(O)O)[C@H](O)[C@H]1OP(=O)(O)OC[C@H]1O[C@@H](n2cnc3c(N)ncnc32)[C@H](OP(=O)(O)OC[C@H]2O[C@@H](n3cnc4c(N)ncnc43)[C@H](OP(=O)(O)OC[C@H]3O[C@@H](n4cnc5c(N)ncnc54)[C@H](OP(=O)(O)O)[C@@H]3O)[C@@H]2O)[C@@H]1O"
  recorded metric: "Activity"
  test result: 86
- smiles record: "Nc1ncnc2c1ncn2[C@@H]1O[C@H](COP(=O)(O)O)[C@H](O)[C@H]1OP(=O)(O)OC[C@H]1O[C@@H](n2cnc3c(N)ncnc32)[C@H](OP(=O)(O)OC[C@H]2O[C@@H](n3cnc4c(N)ncnc43)[C@H](OP(=O)(O)OC[C@H]3O[C@@H](n4cnc5c(N)ncnc54)[C@H](OP(=O)(O)O)[C@@H]3O)[C@H]2O)[C@H]1O"
  recorded metric: "Activity"
  test result: 43
- smiles record: "Nc1ncnc2c1ncn2[C@@H]1O[C@H](COP(=O)(O)O)[C@H](O)[C@H]1OP(=O)(O)OC[C@H]1O[C@@H](n2cnc3c(N)ncnc32)[C@H](OP(=O)(O)OC[C@H]2O[C@@H](n3cnc4c(N)ncnc43)[C@H](OP(=O)(O)OC[C@H]3O[C@@H](n4cnc5c(N)ncnc54)[C@H](OP(=O)(O)O)[C@@H]3O)[C@H]2O)[C@@H]1O"
  recorded metric: "Activity"
  test result: 93
- smiles record: "Nc1ncnc2c1ncn2[C@@H]1O[C@H](COP(=O)(O)O[C@@H]2[C@H](O)[C@@H](COP(=O)(O)O[C@H]3[C@H](O)[C@@H](COP(=O)(O)O[C@@H]4[C@H](O)[C@@H](COP(=O)(O)O)O[C@H]4n4cnc5c(N)ncnc54)O[C@H]3n3cnc4c(N)ncnc43)O[C@H]2n2cnc3c(N)ncnc32)[C@@H](O)[C@H]1OP(=O)(O)O"
  recorded metric: "Activity"
  test result: 37
- smiles record: "Nc1ncnc2c1ncn2[C@@H]1O[C@H](COP(=O)(O)O)[C@H](O)[C@H]1OP(=O)(O)OC[C@H]1O[C@@H](n2cnc3c(N)ncnc32)[C@H](OP(=O)(O)OC[C@H]2O[C@@H](n3cnc4c(N)ncnc43)[C@H](OP(=O)(O)OC[C@H]3O[C@@H](n4cnc5c(N)ncnc54)[C@H](OP(=O)(O)O)[C@@H]3O)[C@@H]2O)[C@H]1O"
  recorded metric: "Activity"
  test result: 51

a: Nc1ncnc2c1ncn2[C@@H]1O[C@H](COP(=O)(O)O[C@H]2[C@H](O)[C@@H](COP(=O)(O)O[C@H]3[C@H](O)[C@@H](COP(=O)(O)O)O[C@H]3n3cnc4c(N)ncnc43)O[C@H]2n2cnc3c(N)ncnc32)[C@@H](O)[C@H]1OP(=O)(O)O
b: Nc1ncnc2c1ncn2[C@@H]1O[C@H](COP(=O)(O)O)[C@H](O)[C@H]1OP(=O)(O)OC[C@H]1O[C@@H](n2cnc3c(N)ncnc32)[C@H](OP(=O)(O)OC[C@H]2O[C@@H](n3cnc4c(N)ncnc43)[C@H](OP(=O)(O)O)[C@@H]2O)[C@H]1O
Ask: So which one has the bigger Activity here, a or b ? Return value: the label identifying the chosen record.
Reply: b

---

- protocol details: Half life in mouse spleen at 4 degreeC
- Format: ADME
recorded metric: half-life (min)
Numbers only here, please. The scale is min.

Ask: For the molecule Nc1ncnc2c1ncn2[C@@H]1O[C@H](COP(=O)(O)O[C@@H]2[C@H](O)[C@@H](COP(=O)(O)O[C@@H]3[C@H](O)[C@@H](COP(=O)(O)O[C@@H]4[C@H](O)[C@@H](COP(=O)(O)O)O[C@H]4n4cnc5c(N)ncnc54)O[C@H]3n3cnc4c(N)ncnc43)O[C@H]2n2cnc3c(N)ncnc32)[C@@H](O)[C@H]1OP(=O)(O)O , give its measured half-life value.
Reply: 600

---

- measurement target: 2-5A-dependent ribonuclease (Mus musculus) (UniProt Q05921)
- protocol details: Displacement of pA4[32P]pCp from mouse spleen RNase L at 1 uM
- Format: tissue-based
recorded metric: Activity (%)
// note: answer is a bare numeric in %

- smiles record: "Nc1ncnc2c1ncn2[C@@H]1O[C@H](COP(=O)(O)O[C@@H]2[C@H](O)[C@@H](COP(=O)(O)O[C@H]3[C@H](O)[C@@H](COP(=O)(O)O)O[C@H]3n3cnc4c(N)ncnc43)O[C@H]2n2cnc3c(N)ncnc32)[C@@H](O)[C@H]1OP(=O)(O)O"
  recorded metric: "Activity"
  units symbol: "%"
  test result: 49
- smiles record: "Nc1ncnc2c1ncn2[C@@H]1O[C@H](COP(=O)(O)O[C@@H]2[C@H](O)[C@@H](COP(=O)(O)O[C@@H]3[C@H](O)[C@@H](COP(=O)(O)O[C@H]4[C@H](O)[C@@H](COP(=O)(O)O)O[C@H]4n4cnc5c(N)ncnc54)O[C@H]3n3cnc4c(N)ncnc43)O[C@H]2n2cnc3c(N)ncnc32)[C@@H](O)[C@H]1OP(=O)(O)O"
  recorded metric: "Activity"
  units symbol: "%"
  test result: 40

Attention now turns to another entry.
Ask: Please give measured Activity of the following entry: Nc1ncnc2c1ncn2[C@@H]1O[C@H](COP(=O)(O)O[C@H]2[C@H](O)[C@@H](COP(=O)(O)O[C@H]3[C@H](O)[C@@H](COP(=O)(O)O[C@H]4[C@H](O)[C@@H](COP(=O)(O)O)O[C@H]4n4cnc5c(N)ncnc54)O[C@H]3n3cnc4c(N)ncnc43)O[C@H]2n2cnc3c(N)ncnc32)[C@@H](O)[C@H]1OP(=O)(O)O
Reply: 0

---

- measurement target: 2-5A-dependent ribonuclease (Mus musculus)
- protocol details: Displacement of pA4[32P]pCp from mouse spleen RNase L at 1 uM
- Assay type: tissue-based
recorded metric: Activity (%)

- smiles record: "Nc1ncnc2c1ncn2[C@@H]1O[C@H](COP(=O)(O)O[C@H]2[C@H](O)[C@@H](COP(=O)(O)O[C@H]3[C@H](O)[C@@H](COP(=O)(O)O[C@@H]4[C@H](O)[C@@H](COP(=O)(O)O)O[C@H]4n4cnc5c(N)ncnc54)O[C@H]3n3cnc4c(N)ncnc43)O[C@H]2n2cnc3c(N)ncnc32)[C@@H](O)[C@H]1OP(=O)(O)O"
  measurement target: "2-5A-dependent ribonuclease (Mus musculus)"
  Activity [%]: 33
- smiles record: "Nc1ncnc2c1ncn2[C@@H]1O[C@H](COP(=O)(O)O[C@@H]2[C@H](O)[C@@H](COP(=O)(O)O[C@@H]3[C@H](O)[C@@H](COP(=O)(O)O)O[C@H]3n3cnc4c(N)ncnc43)O[C@H]2n2cnc3c(N)ncnc32)[C@@H](O)[C@H]1OP(=O)(O)O"
  measurement target: "2-5A-dependent ribonuclease (Mus musculus)"
  Activity [%]: 39
- smiles record: "Nc1ncnc2c1ncn2[C@@H]1O[C@H](COP(=O)(O)O[C@H]2[C@H](O)[C@@H](COP(=O)(O)O[C@@H]3[C@H](O)[C@@H](COP(=O)(O)O[C@H]4[C@H](O)[C@@H](COP(=O)(O)O)O[C@H]4n4cnc5c(N)ncnc54)O[C@H]3n3cnc4c(N)ncnc43)O[C@H]2n2cnc3c(N)ncnc32)[C@@H](O)[C@H]1OP(=O)(O)O"
  measurement target: "2-5A-dependent ribonuclease (Mus musculus)"
  Activity [%]: 51
- smiles record: "Nc1ncnc2c1ncn2[C@@H]1O[C@H](COP(=O)(O)O[C@H]2[C@H](O)[C@@H](COP(=O)(O)O[C@@H]3[C@H](O)[C@@H](COP(=O)(O)O)O[C@H]3n3cnc4c(N)ncnc43)O[C@H]2n2cnc3c(N)ncnc32)[C@@H](O)[C@H]1OP(=O)(O)O"
  measurement target: "2-5A-dependent ribonuclease (Mus musculus)"
  Activity [%]: 33
- smiles record: "Nc1ncnc2c1ncn2[C@@H]1O[C@H](COP(=O)(O)O[C@@H]2[C@H](O)[C@@H](COP(=O)(O)O[C@H]3[C@H](O)[C@@H](COP(=O)(O)O[C@H]4[C@H](O)[C@@H](COP(=O)(O)O)O[C@H]4n4cnc5c(N)ncnc54)O[C@H]3n3cnc4c(N)ncnc43)O[C@H]2n2cnc3c(N)ncnc32)[C@@H](O)[C@H]1OP(=O)(O)O"
  measurement target: "2-5A-dependent ribonuclease (Mus musculus)"
  Activity [%]: 24
- smiles record: "Nc1ncnc2c1ncn2[C@@H]1O[C@H](COP(=O)(O)O[C@@H]2[C@H](O)[C@@H](COP(=O)(O)O)O[C@H]2n2cnc3c(N)ncnc32)[C@H](O)[C@H]1OP(=O)(O)OC[C@H]1O[C@@H](n2cnc3c(N)ncnc32)[C@H](OP(=O)(O)O)[C@@H]1O"
  measurement target: "2-5A-dependent ribonuclease (Mus musculus)"
  Activity [%]: 41
- smiles record: "Nc1ncnc2c1ncn2[C@@H]1O[C@H](COP(=O)(O)O[C@@H]2[C@@H](O)[C@@H](COP(=O)(O)O[C@@H]3[C@H](O)[C@@H](COP(=O)(O)O)O[C@H]3n3cnc4c(N)ncnc43)O[C@H]2n2cnc3c(N)ncnc32)[C@H](O)[C@H]1OP(=O)(O)OC[C@H]1O[C@@H](n2cnc3c(N)ncnc32)[C@H](OP(=O)(O)O)[C@@H]1O"
  measurement target: "2-5A-dependent ribonuclease (Mus musculus)"
  Activity [%]: 88
